Biological target: C-X-C chemokine receptor type 2 (Homo sapiens); also: in other assays of this panel Not Active means under 50% inhibition at 10 µM
Sequence (P25025 whole entry): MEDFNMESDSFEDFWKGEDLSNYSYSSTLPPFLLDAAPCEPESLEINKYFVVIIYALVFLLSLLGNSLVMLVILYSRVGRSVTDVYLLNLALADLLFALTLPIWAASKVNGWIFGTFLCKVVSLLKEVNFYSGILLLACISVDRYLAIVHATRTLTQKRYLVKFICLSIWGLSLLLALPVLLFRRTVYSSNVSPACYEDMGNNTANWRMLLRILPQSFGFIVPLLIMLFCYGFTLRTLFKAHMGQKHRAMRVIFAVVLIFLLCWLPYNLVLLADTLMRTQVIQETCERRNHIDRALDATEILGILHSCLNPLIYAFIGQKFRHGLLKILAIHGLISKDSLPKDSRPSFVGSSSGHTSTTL
Type: cell membranes, Membrane
Conditions: cho-k1
test.readout: IC50

| molecule | assay.result |
| --- | --- |
| CC(=O)Oc1ccc(C(c2ccc(OC(C)=O)cc2)c2ccccn2)cc1 | Not Active |
| C#C[C@]1(OC(C)=O)CC[C@H]2[C@@H]3CCC4=C[C@@H](OC(C)=O)CC[C@@H]4[C@H]3CC[C@@]21C [ETHYNODIOL DIACETATE] | Not Active |
| CCCN(CCC)S(=O)(=O)c1ccc(C(=O)O)cc1 | Not Active |
| O.O.O.O.O.O.[Cl-].[Cl-].[Sr+2] [STRONTIUM CHLORIDE HEXAHYDRATE] | Not Active |

====

Test: DRUGMATRIX: ATPase, Na+/K+ enzyme inhibition (substrate: ATP)
Assay type: tissue-based, Sus scrofa, Heart
Details: Not Active = under 50% inhibition at 10 µM

| molecule | Ki |
| --- | --- |
| CCN1CCC[C@H]1CNC(=O)c1cc(S(N)(=O)=O)ccc1OC [LEVOSULPIRIDE] | Not Active |
| N=C(N)NC(=O)Cc1c(Cl)cccc1Cl [GUANFACINE] | Not Active |
| CC(C)NCC(O)c1ccc(O)c(O)c1 (stereo not drawn) [ISOPROTERENOL] | Not Active |
| CN(C/C=C/C#CC(C)(C)C)Cc1cccc2ccccc12 [TERBINAFINE] | Not Active |
| CNC1(c2ccccc2Cl)CCCCC1=O (stereo not drawn) [KETAMINE] | Not Active |
| C[C@@H](CO)NC(=O)[C@@H]1C=C2c3cccc4[nH]cc(c34)C[C@H]2N(C)C1 [ERGONOVINE] | Not Active |
| CCN(CC)CCNC(=O)c1cc(S(C)(=O)=O)ccc1OC [TIAPRIDE] | Not Active |
| CC(C)NCC(O)COc1cccc2[nH]ccc12 (stereo not drawn) [PINDOLOL] | Not Active |
| COc1ccc(C(=O)N2CCCC2=O)cc1 | Not Active |
| COC(=O)Nc1nc2ccc([S+]([O-])c3ccccc3)cc2[nH]1 (stereo not drawn) [OXFENDAZOLE] | Not Active |
| C[C@]12C=CC(=O)C=C1CC[C@@H]1[C@@H]2[C@@H](O)C[C@@]2(C)[C@H]1CC[C@]2(O)C(=O)CO [PREDNISOLONE] | Not Active |
| Cn1c(=O)c2c(ncn2CC(O)CO)n(C)c1=O (stereo not drawn) [DYPHYLLINE] | Not Active |
| O=C(Nc1ccc(Br)cc1)c1cc(Br)cc(Br)c1O [TRIBROMSALAN] | Not Active |
| CC(=O)[C@H]1[C@H](C#N)C[C@H]2[C@@H]3CC=C4C[C@@H](O)CC[C@]4(C)[C@H]3CC[C@@]21C [PREGNENOLONE CARBONITRILE] | Not Active |
| C#C[C@]1(OC(C)=O)CC[C@H]2[C@@H]3CCC4=C[C@@H](OC(C)=O)CC[C@@H]4[C@H]3CC[C@@]21C [ETHYNODIOL DIACETATE] | Not Active |
| C[C@H]1C[C@@H]2[C@H]([C@@H](O)C[C@@]3(C)[C@H]2CC[C@]3(O)C(=O)CO)[C@@]2(C)C=CC(=O)C=C12 [METHYLPREDNISOLONE] | Not Active |
| Nc1cc(N2CCCCC2)nc(N)[n+]1[O-] [MINOXIDIL] | Not Active |
| CCC(=O)O[C@]1(C(=O)CCl)[C@@H](C)C[C@H]2[C@@H]3CCC4=CC(=O)C=C[C@]4(C)[C@@]3(F)[C@@H](O)C[C@@]21C [CLOBETASOL PROPIONATE] | Not Active |
| CCC1(C)CC(=O)NC1=O (stereo not drawn) [ETHOSUXIMIDE] | Not Active |
| CC1(C)S[C@@H]2[C@H](NC(=O)[C@H](N)c3ccccc3)C(=O)N2[C@H]1C(=O)O [AMPICILLIN] | Not Active |
| CC(C)c1cccc(C(C)C)c1O [PROPOFOL] | Not Active |
| CC(C)=CCC/C(C)=C/CO [GERANIOL] | Not Active |
| CCN(CC)CCOCCC1=CCC2CC1C2(C)C (stereo not drawn) [MYRTECAINE] | Not Active |
| O=C(O)c1cccnc1Nc1cccc(C(F)(F)F)c1 [NIFLUMIC ACID] | Not Active |
| C=CCc1ccc(O)c(OC)c1 [EUGENOL] | Not Active |
| C[C@@H]1CC[C@@]2(OC1)O[C@H]1[C@@H](O)[C@H]3[C@@H]4CC[C@H]5C[C@@H](O[C@@H]6O[C@H](CO)[C@H](O[C@@H]7O[C@H](CO)C(O)[C@H](O[C@@H]8OC[C@@H](O)[C@H](O)[C@H]8O)[C@H]7O[C@@H]7O[C@H](CO)[C@H](O)[C@H](O[C@@H]8O[C@H](CO)[C@@H](O)[C@H](O)[C@H]8O)[C@H]7O)[C@H](O)[C@H]6O)[C@H](O)C[C@]5(C)[C@H]4CC[C@]3(C)[C@H]1[C@@H]2C (stereo partly drawn) [DIGITONIN] | Not Active |
| CC(C(=O)O)c1cccc(Oc2ccccc2)c1 (stereo not drawn) [FENOPROFEN] | Not Active |
| CCCCOc1cc(CC2CNC(=O)N2)ccc1OC (stereo not drawn) [RO-201724] | Not Active |
| Clc1ccccc1CN1CCc2sccc2C1 [TICLOPIDINE] | Not Active |
| O=C1CN=C(c2ccccc2Cl)c2cc([N+](=O)[O-])ccc2N1 [CLONAZEPAM] | Not Active |
| O.O.O.O.O.O.[Cl-].[Cl-].[Sr+2] [STRONTIUM CHLORIDE HEXAHYDRATE] | Not Active |
| CN(C)CC[C@@H](c1ccc(Cl)cc1)c1ccccn1 [DEXCHLORPHENIRAMINE] | Not Active |
| C[n+]1ccccc1/C=N/O.[Cl-] [PRALIDOXIME CHLORIDE] | Not Active |

====

Target: Cytochrome P450 2D6 (Homo sapiens); also: in other assays of this panel Not Active means under 50% inhibition at 10 µM
Sequence (P10635 whole entry): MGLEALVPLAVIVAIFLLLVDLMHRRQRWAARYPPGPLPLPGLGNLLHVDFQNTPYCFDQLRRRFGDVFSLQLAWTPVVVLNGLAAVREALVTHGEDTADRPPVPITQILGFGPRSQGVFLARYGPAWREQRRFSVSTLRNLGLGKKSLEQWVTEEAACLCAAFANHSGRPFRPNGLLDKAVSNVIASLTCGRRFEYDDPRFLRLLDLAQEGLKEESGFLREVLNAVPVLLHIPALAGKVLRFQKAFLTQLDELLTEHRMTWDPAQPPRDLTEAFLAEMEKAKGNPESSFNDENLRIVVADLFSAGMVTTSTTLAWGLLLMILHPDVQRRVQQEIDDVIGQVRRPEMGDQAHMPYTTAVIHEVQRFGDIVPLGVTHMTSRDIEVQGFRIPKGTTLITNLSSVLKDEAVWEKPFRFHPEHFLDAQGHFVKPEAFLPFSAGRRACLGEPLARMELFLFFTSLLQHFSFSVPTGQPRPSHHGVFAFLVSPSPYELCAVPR
Conditions: bti-tn-5b1-4
test.readout: IC50

| molecule | system.tested | test.readout | assay.result |
| --- | --- | --- | --- |
| Fc1ccc(C(c2ccc(F)cc2)N2CCN(C/C=C/c3ccccc3)CC2)cc1 | Cytochrome P450 2D6 (Homo sapiens) | IC50 | Not Active |
| COc1ccc2[nH]cc(CCNC(C)=O)c2c1 | Cytochrome P450 2D6 (Homo sapiens) | IC50 | Not Active |
| COc1cc2nc(N3CCN(C(=O)C4CCCO4)CC3)nc(N)c2cc1OC (stereo not given) | Cytochrome P450 2D6 (Homo sapiens) | IC50 | Not Active |
| COC(=O)Nc1nc2ccc(C(=O)c3cccs3)cc2[nH]1 | Cytochrome P450 2D6 (Homo sapiens) | IC50 | Not Active |
| C[n+]1ccc(-c2cc[n+](C)cc2)cc1.[Cl-].[Cl-] [PARAQUAT DICHLORIDE] | Cytochrome P450 2D6 (Homo sapiens) | IC50 | Not Active |
| CCN1CCC[C@H]1CNC(=O)c1cc(S(N)(=O)=O)ccc1OC [LEVOSULPIRIDE] | Cytochrome P450 2D6 (Homo sapiens) | IC50 | Not Active |
| O=C/C=C/c1ccccc1 | Cytochrome P450 2D6 (Homo sapiens) | IC50 | Not Active |
| COc1cc2nc(N3CCN(C(=O)c4ccco4)CC3)nc(N)c2cc1OC | Cytochrome P450 2D6 (Homo sapiens) | IC50 | Not Active |
| CC(C)Oc1ccc2c(=O)c(-c3ccccc3)coc2c1 | Cytochrome P450 2D6 (Homo sapiens) | IC50 | Not Active |
| O=C1O[C@H]([C@@H](O)CO)C(O)=C1O | Cytochrome P450 2D6 (Homo sapiens) | IC50 | Not Active |
| CC(C)NCC(O)c1ccc(NS(C)(=O)=O)cc1 (stereo not given) | Cytochrome P450 2D6 (Homo sapiens) | IC50 | Not Active |
| Oc1c(Cl)cc(Cl)c(Cl)c1Cc1c(O)c(Cl)cc(Cl)c1Cl | Cytochrome P450 2D6 (Homo sapiens) | IC50 | Not Active |
| CCC1(CCC(C)C)C(=O)NC(=O)NC1=O | Cytochrome P450 2D6 (Homo sapiens) | IC50 | Not Active |
| CN/C(=N\CCSCc1nc[nH]c1C)NC#N | Cytochrome P450 2D6 (Homo sapiens) | IC50 | Not Active |
| Cn1c(=O)c2c(ncn2CC(O)CO)n(C)c1=O (stereo not given) | Cytochrome P450 2D6 (Homo sapiens) | IC50 | Not Active |
| CC(=O)O[C@H]1C(=O)[C@@]2(C)[C@H]([C@H](OC(=O)c3ccccc3)[C@]3(O)C[C@H](OC(=O)[C@H](O)[C@@H](NC(=O)c4ccccc4)c4ccccc4)C(C)=C1C3(C)C)[C@]1(OC(C)=O)CO[C@@H]1C[C@@H]2O | Cytochrome P450 2D6 (Homo sapiens) | IC50 | Not Active |
| O=C(c1ccccc1C(F)(F)F)N1CCC(Cc2ccccc2)CC1 | Cytochrome P450 2D6 (Homo sapiens) | IC50 | Not Active |
| Nc1cc(N2CCCCC2)nc(N)[n+]1[O-] | Cytochrome P450 2D6 (Homo sapiens) | IC50 | Not Active |
| CC(c1cc2ccccc2s1)N(O)C(N)=O (stereo not given) | Cytochrome P450 2D6 (Homo sapiens) | IC50 | Not Active |
| Nc1ccc2c3c(cccc13)C(=O)NC2=O | Cytochrome P450 2D6 (Homo sapiens) | IC50 | Not Active |
